FYI, the data here is from ChEMBL document CHEMBL3137667.

Measured Hepatotoxicity (severe hepatitis), listed per entry.
Test Settings: human
Form: value (number only, do not type unit).

# example entries with known answers
{"columns": ["Molecule", "Hepatotoxicity (severe hepatitis)"],
 "data": [
  ["c1ccc2c(CCC3CCNCC3)c[nH]c2c1 [INDALPINE]", 0],
  ["O=C(O)CN1C(=O)c2cccc3cccc(c23)C1=O [ALRESTATIN]", 0],
  ["CN(C/C=C/C#CC(C)(C)C)Cc1cccc2ccccc12 [TERBINAFINE]", 3],
  ["CC(C)COCC(CN(Cc1ccccc1)c1ccccc1)N1CCCC1 (centres undefined) [BEPRIDIL]", 0],
  ["CCc1nn(CCCN2CCN(c3cccc(Cl)c3)CC2)c(=O)n1CCOc1ccccc1 [NEFAZODONE]", 11],
  ["C[C@@H](O)[C@H]1C(=O)N2C(C(=O)[O-])=C(SC3Cn4cnc[n+]4C3)[C@H](C)[C@H]12 (some centres undefined) [BIAPENEM]", 0]
]}

Request: What does the data say about its Hepatotoxicity (severe hepatitis)? Entry: CC(=O)O[C@]1(C(C)=O)CC[C@H]2[C@@H]3C=C(C)C4=CC(=O)CC[C@]4(C)[C@H]3CC[C@@]21C [MEGESTROL ACETATE]
Result: 0

Request: What does the data say about its Hepatotoxicity (severe hepatitis)? Entry: CCC[C@H](N[C@@H](C)C(=O)N1[C@H](C(=O)O)C[C@@H]2CCCC[C@@H]21)C(=O)OCC [PERINDOPRIL]
Result: 0

Request: What does the data say about its Hepatotoxicity (severe hepatitis)? Entry: Cc1ncsc1CCCl [CLOMETHIAZOLE]
Result: 2

----------
Test Settings: human, serum
Answer NOT MET if Hepatotoxicity (acute) is under 4, and MET if it is 4 or more.

{"columns": ["Molecule", "Discrete Label"],
 "data": [
  ["CC1=C(CC(=O)O)c2cc(F)ccc2/C1=C\\c1ccc([S+](C)[O-])cc1 (stereo not given)", "MET"],
  ["COc1ccc([C@@H]2Sc3ccccc3N(CCN(C)C)C(=O)[C@@H]2OC(C)=O)cc1", "MET"],
  ["O=c1[nH]c(=O)n([C@H]2C[C@H](O)[C@@H](CO)O2)cc1I", "NOT MET"],
  ["NN [HYDRAZINE]", "NOT MET"],
  ["O=C(O)P(=O)(O)O", "NOT MET"]
]}

Request: Would you say `CO/N=C(\C(=O)N[C@@H]1C(=O)N2C(C(=O)[O-])=C(C[N+]34CCC(C(N)=O)(CC3)CC4)CS[C@H]12)c1nsc(N)n1` shows Hepatotoxicity (acute) at minimum 4?
Result: NOT MET

Request: Would you say `CC1=C(C(=O)O)N2C(=O)[C@@H](NC(=O)[C@H](N)c3ccc(O)cc3)[C@H]2SC1` shows Hepatotoxicity (acute) at minimum 4?
Result: NOT MET

Request: Would you say `Cc1c(Cl)cccc1Nc1ccccc1C(=O)O` shows Hepatotoxicity (acute) at minimum 4?
Result: NOT MET

Request: Would you say `COC(F)(F)C(Cl)Cl` shows Hepatotoxicity (acute) at minimum 4?
Result: MET

----------
Test Settings: human
Endpoint Name: Hepatotoxicity (choleostasis)
Form: value (number only, do not type unit).

{"columns": ["Molecule", "Hepatotoxicity (choleostasis)"],
 "data": [
  ["CNCCNc1ccc2c3c(nn2CCNCCO)-c2c(O)ccc(O)c2C(=O)c13 [TELOXANTRONE]", 1],
  ["C=C1c2cccc(O)c2C(=O)C2=C(O)[C@]3(O)C(=O)C(C(N)=O)=C(O)[C@@H](N(C)C)[C@@H]3[C@@H](O)[C@H]12 [METHACYCLINE]", 0],
  ["CC1=C(C(=O)O)N2C(=O)[C@@H](NC(=O)[C@H](N)C3=CCC=CC3)[C@H]2SC1 [CEPHRADINE]", 1],
  ["CCC1=C[C@@H]2CN(C1)Cc1c([nH]c3ccccc13)[C@@](C(=O)OC)(c1cc3c(cc1OC)N(C)[C@H]1[C@@](O)(C(=O)OC)[C@H](OC(C)=O)[C@]4(CC)C=CCN5CC[C@]31[C@@H]54)C2 [VINORELBINE]", 0],
  ["O=C(CCCN1CCC(O)(c2ccc(Br)cc2)CC1)c1ccc(F)cc1 [BROMPERIDOL]", 0]
]}

Request: What does the data say about its Hepatotoxicity (choleostasis)? Entry: Cc1ccc(S(=O)(=O)NC(=O)NC2CCCCC2)cc1N [METAHEXAMIDE]
Result: 4

Request: What does the data say about its Hepatotoxicity (choleostasis)? Entry: O=C(O)COC(=O)Cc1ccccc1Nc1c(Cl)cccc1Cl [ACECLOFENAC]
Result: 0

Request: What does the data say about its Hepatotoxicity (choleostasis)? Entry: N[C@@H](Cc1cc(I)c(Oc2cc(I)c(O)c(I)c2)c(I)c1)C(=O)O [LEVOTHYROXINE]
Result: 0

Request: What does the data say about its Hepatotoxicity (choleostasis)? Entry: CC(C)(S)C(=O)N[C@@H](CS)C(=O)O [BUCILLAMINE]
Result: 0

----------
Test Settings: human, Liver
Endpoint Name: Hepatotoxicity (granulomatous hepatitis)
Form: value (number only, do not type unit).

Request: What does the data say about its Hepatotoxicity (granulomatous hepatitis)? Entry: `CCCCc1oc2ccccc2c1C(=O)c1cc(I)c(OCCN(CC)CC)c(I)c1`
Result: 2

----------
Measured Hepatotoxicity (cytolytic), listed per entry.
Test Settings: human

# example entries with known answers
{"columns": ["Compound", "Hepatotoxicity (cytolytic)"],
 "data": [
  ["CCN(CC)CC[n+]1ccc2c(C)c3[nH]c4ccc(O)cc4c3c(C)c2c1.[Cl-] [DATELLIPTIUM CHLORIDE]", 2],
  ["CC1=C(/C=C/C(C)=C/C=C/C(C)=C/C(=O)Nc2ccc(O)cc2)C(C)(C)CCC1 [FENRETINIDE]", 0],
  ["N=C(N)NCC1COc2ccccc2O1 (centres undefined)", 1],
  ["CC(C)[C@H](N)C(=O)OCC(CO)OCn1cnc2c(=O)nc(N)[nH]c21 (some centres undefined)", 0],
  ["CCOC(N)=O", 5]
]}

Request: What does the data say about its Hepatotoxicity (cytolytic)? Entry: `CO/N=C(\C(=O)N[C@@H]1C(=O)N2C(C(=O)O)=C(C)CS[C@H]12)c1csc(N)n1`
Result: 0

Request: What does the data say about its Hepatotoxicity (cytolytic)? Entry: `O=C(O)Cc1nn(Cc2nc3cc(C(F)(F)F)ccc3s2)c(=O)c2ccccc12`
Result: 0

Request: What does the data say about its Hepatotoxicity (cytolytic)? Entry: `N=C(N)c1ccc(OCCCCCOc2ccc(C(=N)N)cc2)cc1`
Result: 4

Request: What does the data say about its Hepatotoxicity (cytolytic)? Entry: `O=C1CN=C(c2ccccc2Cl)c2cc([N+](=O)[O-])ccc2N1`
Result: 2

----------
Test Settings: human
Measured Hepatotoxicity (cirrhosis), listed per entry.
Form: value (number only, do not type unit).

# example entries with known answers
{"columns": ["Smiles Representation", "Hepatotoxicity (cirrhosis)"],
 "data": [
  ["COc1cccc2c1C(=O)c1c(O)c3c(c(O)c1C2=O)C[C@@](O)(C(C)=O)C[C@@H]3O[C@H]1C[C@H](N)[C@H](O)[C@H](C)O1", 0],
  ["CN1C(=O)CN=C(c2ccccc2)c2cc(Cl)ccc21", 0]
]}

Request: What does the data say about its Hepatotoxicity (cirrhosis)? Entry: `CCS(=O)(=O)CCn1c([N+](=O)[O-])cnc1C`
Result: 0

Request: What does the data say about its Hepatotoxicity (cirrhosis)? Entry: `COc1ccc2c(C(=S)N(C)CC(=O)O)cccc2c1C(F)(F)F`
Result: 0

Request: What does the data say about its Hepatotoxicity (cirrhosis)? Entry: `NNCCc1ccccc1`
Result: 1

----------
Test Settings: human, serum
Answer false if Hepatotoxicity (moderate) is under 1, and true if it is 1 or more.

Solved cases (3 shown):
{"columns": ["Compound", "Discrete Label"],
 "data": [
  ["CCn1cc(C(=O)O)c(=O)c2ccc(C)nc21", "true"],
  ["CN(C)CC[C@@H](c1ccc(Cl)cc1)c1ccccn1", "false"],
  ["CC(=O)CC(c1ccc([N+](=O)[O-])cc1)c1c(O)c2ccccc2oc1=O (centres undefined)", "true"]
]}

Request: Would you say `CN(C)Cc1ccc(CSCCN/C(=C\[N+](=O)[O-])NCc2ccc3c(c2)OCO3)o1` shows Hepatotoxicity (moderate) at minimum 1?
Result: false

Request: Would you say CCCC(=O)Nc1ccc(OCC(O)CNC(C)C)c(C(C)=O)c1 (centres undefined) shows Hepatotoxicity (moderate) at minimum 1?
Result: false

----------
Test Description: Highest frequency of moderate liver toxicity observed during clinical trials, expressed as a percentage. [column '% BIOL' in source]
Test Settings: human
*1 amine or outer side, *2 acyl side, *3 side chain or, on linkers, in order; H or OH if unused. Where a SMILES comes first, the peptide text is derived from it. Bridges are numbered along the chain shown (N, C = ends). Roman numbers before positions name the chains, in order. [ ]: non-standard residue; d: D form. Actinocin(9to1) = Cc1c2oc3c(C)ccc(C(=O)[*:1])c3nc-2c(C(=O)[*:2])c(N)c1=O; NMeV = CN[C@H](C(=O)O)C(C)C; Sar = CNCC(=O)O
Endpoint Name: Hepatotoxicity (moderate) (%)
The figure you give is taken to be in %; do not add the unit.

# example entries with known answers
{"columns": ["Molecule", "Hepatotoxicity (moderate) [%]"],
 "data": [
  ["CCOC(=O)c1c(N)sc2c1CCN(Cc1ccccc1)C2 [TINORIDINE]", 0],
  ["NCCCC[C@H](N[C@@H](CCc1ccccc1)C(=O)O)C(=O)N1CCC[C@H]1C(=O)O [LISINOPRIL ANHYDROUS]", 7.7],
  ["Cc1c2oc3c(C)ccc(C(=O)N[C@@H]4C(=O)N[C@H](C(C)C)C(=O)N5CCC[C@H]5C(=O)N(C)CC(=O)N(C)[C@@H](C(C)C)C(=O)O[C@@H]4C)c3nc-2c(C(=O)N[C@@H]2C(=O)N[C@H](C(C)C)C(=O)N3CCC[C@H]3C(=O)N(C)CC(=O)N(C)[C@@H](C(C)C)C(=O)O[C@@H]2C)c(N)c1=O [DACTINOMYCIN] (I: T[dV]P[Sar][NMeV] / II: T[dV]P[Sar][NMeV]; ester I:1-I:C, II:1-II:C; linker I:N-II:N via Actinocin(9to1))", 12]
]}

Request: What does the data say about its Hepatotoxicity (moderate)? Entry: COCC1=C(C(=O)O)N2C(=O)[C@@H](NC(=O)/C(=N\OC)c3csc(N)n3)[C@H]2SC1 [CEFPODOXIME]
Result: 33.3

Request: What does the data say about its Hepatotoxicity (moderate)? Entry: O=c1[nH]cc(F)c(=O)[nH]1 [FLUOROURACIL]
Result: 61.2
